Measured values drawn from paper PMC9967645 for this set.

experiment: Pharmacokinetic DDI study in rats, intravenous Y101 and/or ETV; type: in vivo, Sprague–Dawley (SD) rats; settings: Sprague-Dawley, rat, plasma, i.v. Y101 25 mg/kg + ETV 0.06 mg/kg, n = 4, read-out: CLp (plasma clearance) (converted)
value kind: clearance

chemical structure: CN(C)CCOc1ccc(C[C@H](NC(=O)c2ccccc2)C(=O)N[C@H](CO)Cc2ccccc2)cc1.Cl
value kind: clearance
recorded value: 258 mL/min/kg
--
chemical structure: C=C1[C@H](CO)[C@@H](O)C[C@@H]1n1cnc2c(=O)[nH]c(N)nc21
value kind: clearance
recorded value: 152 mL/min/kg

* * *

assay: Pharmacokinetic study in rats, intravenous Y101 with or without PRO; format: in vivo, Sprague–Dawley (SD) rats; settings: male, Sprague-Dawley, rat, plasma, iv, 25 mg/kg, i.v. Y101 25 mg/kg + PRO 100 mg/kg, n = 3
value kind: Tmax (min)

compound: C[N+](C)([O-])CCOc1ccc(CC(NC(=O)c2ccccc2)C(=O)O)cc1 (centres unmarked)
unit text: min
recorded value: 79.8
--
compound: CN(C)CCOc1ccc(CC(NC(=O)c2ccccc2)C(=O)O)cc1 (centres unmarked)
unit text: min
recorded value: 30

* * *

assay: Pharmacokinetic study in rats, intravenous Y101 with or without PRO; format: in vivo, Sprague–Dawley (SD) rats; conditions: male, Sprague-Dawley, rat, plasma, iv, 25 mg/kg, i.v. Y101 25 mg/kg + PRO 100 mg/kg, plasma, n = 3

chemical structure: CN(C)CCOc1ccc(C[C@H](NC(=O)c2ccccc2)C(=O)N[C@H](CO)Cc2ccccc2)cc1.Cl
C0 [ng/mL]: 15800

* * *

# key: entry, value: half-life
test: Pharmacokinetic study in rats, intravenous Y101 with or without PRO; type: in vivo, Sprague–Dawley (SD) rats; details: male, Sprague-Dawley, rat, plasma, iv, 25 mg/kg, i.v. Y101 25 mg/kg alone, n = 3

compound: CN(C)CCOc1ccc(CC(NC(=O)c2ccccc2)C(=O)O)cc1 (stereo not drawn) [M8]
half-life: 4.07 h
--
compound: CN(C)CCOc1ccc(C[C@H](NC(=O)c2ccccc2)C(=O)N[C@H](CO)Cc2ccccc2)cc1.Cl [Y101]
half-life: 0.798 h
--
compound: C[N+](C)([O-])CCOc1ccc(CC(NC(=O)c2ccccc2)C(=O)O)cc1 (stereo not drawn) [M9]
half-life: 1.01 h

* * *

experiment: Pharmacokinetic study in rats, intravenous Y101 with or without PRO; format: in vivo, Sprague–Dawley (SD) rats; conditions: male, Sprague-Dawley, rat, plasma, iv, 25 mg/kg, i.v. Y101 25 mg/kg alone, n = 3

compound: C[N+](C)([O-])CCOc1ccc(CC(NC(=O)c2ccccc2)C(=O)O)cc1 (stereo not drawn) [M9]
AUC(0-inf) / ng·h/mL: 343
--
compound: CN(C)CCOc1ccc(C[C@H](NC(=O)c2ccccc2)C(=O)N[C@H](CO)Cc2ccccc2)cc1.Cl [Y101]
AUC(0-inf) / ng·h/mL: 2860
--
compound: CN(C)CCOc1ccc(CC(NC(=O)c2ccccc2)C(=O)O)cc1 (stereo not drawn) [M8]
AUC(0-inf) / ng·h/mL: 8360

* * *

experiment: Pharmacokinetic study in rats, intravenous Y101 with or without PRO; assay type: in vivo, Sprague–Dawley (SD) rats; conditions: male, Sprague-Dawley, rat, plasma, iv, 25 mg/kg, i.v. Y101 25 mg/kg + PRO 100 mg/kg, n = 3

compound: CN(C)CCOc1ccc(CC(NC(=O)c2ccccc2)C(=O)O)cc1 (stereo not drawn) [M8]
half-life [h]: 3.45
--
compound: CN(C)CCOc1ccc(C[C@H](NC(=O)c2ccccc2)C(=O)N[C@H](CO)Cc2ccccc2)cc1.Cl [Y101]
half-life [h]: 0.706
--
compound: C[N+](C)([O-])CCOc1ccc(CC(NC(=O)c2ccccc2)C(=O)O)cc1 (stereo not drawn) [M9]
half-life [h]: 1.32

* * *

test: Pharmacokinetic DDI study in rats, intravenous Y101 and/or ETV; type: in vivo, Sprague–Dawley (SD) rats; conditions: Sprague-Dawley, rat, plasma, i.v. Y101 25 mg/kg alone, n = 4
value kind: half-life (h)

compound: CN(C)CCOc1ccc(CC(NC(=O)c2ccccc2)C(=O)O)cc1 (stereo not drawn) [M8]
value kind: half-life
recorded value: 1.93
//
compound: CN(C)CCOc1ccc(C[C@H](NC(=O)c2ccccc2)C(=O)N[C@H](CO)Cc2ccccc2)cc1.Cl [Y101]
value kind: half-life
recorded value: 0.682
//
compound: C[N+](C)([O-])CCOc1ccc(CC(NC(=O)c2ccccc2)C(=O)O)cc1 (stereo not drawn) [M9]
value kind: half-life
recorded value: 1.14

* * *

Experiment: Pharmacokinetic DDI study in rats, oral Y101 and/or ETV
Format: in vivo, Sprague–Dawley (SD) rats
Details: Sprague-Dawley, rat, plasma, oral Y101 60 mg/kg + ETV 0.06 mg/kg, n = 4
Method: Additionally, DDI between Y101 and ETV was investigated by monitoring time-course plasma Y101 in rats with surgery as described above. Animals were randomly placed into three groups (n = 4): (1) Y101 alone (25 mg/kg for intravenous treatment and 60 mg/kg for oral administration); (2) ETV (0.06 mg/kg); and (3) Y101 (25 mg/kg for intravenous treatment and 60 mg/kg for oral administration) + ETV (0.06 mg/kg). ETV was dissolved in saline at concentration of 12 µg/mL. […]

compound: CN(C)CCOc1ccc(CC(NC(=O)c2ccccc2)C(=O)O)cc1 (stereo not shown) [M8]
unit text: h
half-life: 3.64

compound: CN(C)CCOc1ccc(C[C@H](NC(=O)c2ccccc2)C(=O)N[C@H](CO)Cc2ccccc2)cc1.Cl [Y101]
unit text: h
half-life: 1.11

compound: C=C1[C@H](CO)[C@@H](O)C[C@@H]1n1cnc2c(=O)[nH]c(N)nc21 [ETV, entecavir]
unit text: h
half-life: 1.45

compound: C[N+](C)([O-])CCOc1ccc(CC(NC(=O)c2ccccc2)C(=O)O)cc1 (stereo not shown) [M9]
unit text: h
half-life: 1.46

* * *

assay: Renal excretion study in rats (cumulative urinary excretion, renal clearance); assay type: in vivo, Sprague–Dawley (SD) rats; conditions: Sprague-Dawley, rat, urine, iv, i.v. Y101 25 mg/kg + ETV 0.06 mg/kg, read-out: CLR (renal clearance) (converted)
# key: entry, value: CL renal

molecule: C=C1[C@H](CO)[C@@H](O)C[C@@H]1n1cnc2c(=O)[nH]c(N)nc21
unit text: mL/min/kg
CL renal: 33.3
//
molecule: C[N+](C)([O-])CCOc1ccc(CC(NC(=O)c2ccccc2)C(=O)O)cc1 (stereo not shown)
unit text: mL/min/kg
CL renal: 2.67
//
molecule: CN(C)CCOc1ccc(C[C@H](NC(=O)c2ccccc2)C(=O)N[C@H](CO)Cc2ccccc2)cc1.Cl
unit text: mL/min/kg
CL renal: 7.93
//
molecule: CN(C)CCOc1ccc(CC(NC(=O)c2ccccc2)C(=O)O)cc1 (stereo not shown)
unit text: mL/min/kg
CL renal: 106

* * *

assay: Pharmacokinetic DDI study in rats, oral Y101 and/or ETV; type: in vivo, Sprague–Dawley (SD) rats; conditions: Sprague-Dawley, rat, oral ETV 0.06 mg/kg alone, plasma, n = 4

compound: C=C1[C@H](CO)[C@@H](O)C[C@@H]1n1cnc2c(=O)[nH]c(N)nc21 [ETV, entecavir]
unit text: ng/mL
Cmax: 5.54

* * *

assay: Pharmacokinetic DDI study in rats, intravenous Y101 and/or ETV; type: in vivo, Sprague–Dawley (SD) rats; details: Sprague-Dawley, rat, i.v. Y101 25 mg/kg + ETV 0.06 mg/kg, plasma, n = 4
# key: entry, value: AUC(0-t)
value kind: AUC(0-t) (ng·h/mL)

molecule: C[N+](C)([O-])CCOc1ccc(CC(NC(=O)c2ccccc2)C(=O)O)cc1 (stereo not shown) [M9]
recorded value: 464
--
molecule: CN(C)CCOc1ccc(CC(NC(=O)c2ccccc2)C(=O)O)cc1 (stereo not shown) [M8]
recorded value: 6100
--
molecule: CN(C)CCOc1ccc(C[C@H](NC(=O)c2ccccc2)C(=O)N[C@H](CO)Cc2ccccc2)cc1.Cl [Y101]
recorded value: 1670
--
molecule: C=C1[C@H](CO)[C@@H](O)C[C@@H]1n1cnc2c(=O)[nH]c(N)nc21 [ETV, entecavir]
recorded value: 6.31

* * *

test: Pharmacokinetic DDI study in rats, intravenous Y101 and/or ETV; format: in vivo, Sprague–Dawley (SD) rats; settings: Sprague-Dawley, rat, plasma, i.v. ETV 0.06 mg/kg alone, n = 4
value kind: half-life (h)

chemical structure: C=C1[C@H](CO)[C@@H](O)C[C@@H]1n1cnc2c(=O)[nH]c(N)nc21
value kind: half-life
recorded value: 1.28

* * *

experiment: Pharmacokinetic DDI study in rats, intravenous Y101 and/or ETV; assay type: in vivo, Sprague–Dawley (SD) rats; conditions: Sprague-Dawley, rat, i.v. Y101 25 mg/kg + ETV 0.06 mg/kg, plasma, n = 4

compound: C=C1[C@H](CO)[C@@H](O)C[C@@H]1n1cnc2c(=O)[nH]c(N)nc21 [ETV, entecavir]
C0, ng/mL: 19.1
--
compound: CN(C)CCOc1ccc(C[C@H](NC(=O)c2ccccc2)C(=O)N[C@H](CO)Cc2ccccc2)cc1.Cl [Y101]
C0, ng/mL: 6280
